target: Beta-carbonic anhydrase 1 (Mycobacterium tuberculosis)
Sequence (P9WPJ7 whole entry): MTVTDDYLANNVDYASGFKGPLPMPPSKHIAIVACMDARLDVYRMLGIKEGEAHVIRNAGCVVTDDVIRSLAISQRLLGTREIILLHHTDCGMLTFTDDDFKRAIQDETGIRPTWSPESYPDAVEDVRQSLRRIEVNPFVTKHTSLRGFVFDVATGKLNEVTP
pKi: −log10 of the molar value.

# COMPOUND, TESTED_ON, pKi
measured = [
    ("CC(=O)/N=c1/sc(S(N)(=O)=O)nn1C [METHAZOLAMIDE]", "Beta-carbonic anhydrase 1 (Mycobacterium tuberculosis)", 6.11),
]
